Exercise: state measured IC50 for each of the compounds provided.
- Test system: HCT-116 human colon carcinoma cells
- MEASUREMENT DESCRIPTION: Cytotoxicity (sulphorodamine B) on HCT-116 tumor cells
- Type: cell-based
- MEASUREMENT PARAMETERS: Homo sapiens, HCT-116 cells, 24 h treatment, then 48 h in drug-free medium, read-out: IC50 ± SD, HCT-116
Counter-ions that a name gives are not always drawn.
Give bare numbers, in nM.

As a guide, the following entries are already answered.
COc1ccc(NC(=O)C(CCCCCC(=O)NO)OCc2ccccc2)cc1 (racemic)    500
O=C(CCCCC(O)C(=O)Nc1ccccc1)NO (racemic)    8600
C=CCOC(CCCCCCC(=O)NO)C(=O)Nc1ccccc1 (racemic) [Compound 13c]    1000
O=C(CCCCCC(OCc1cccc(Oc2ccccc2)c1)C(=O)Nc1ccccc1)NO (racemic)    700

Dear colleague, could you please provide IC50 for the compounds listed below?
1. COc1ccc(COC(CCCCCC(=O)NO)C(=O)Nc2ccc(OC)cc2)cc1 (racemic)
2. C=CCOC(CCCCC(=O)NO)C(=O)Nc1ccccc1 (racemic)
3. O=C(CCCCC[C@@H]1NCCCCCCOc2ccccc2NC1=O)NO [(S)-42a, hydrochloride]

[300, 4300, 800]

Provide measured IC50 value, entry: COc1ccc(COC(CCCCCC(=O)NO)C(=O)Nc2ccccc2)cc1 (racemic)
200

* * *

Assignment: determine reported IC50 for the given molecules.
- Test system: NB4 human promyelocitic leukaemia
- MEASUREMENT DESCRIPTION: Cytotoxicity (sulphorodamine B) on NB4 tumor cells
- Format: cell-based
- MEASUREMENT PARAMETERS: Homo sapiens, NB-4, 24 h treatment, then 48 h in drug-free medium, read-out: IC50 ± SD, NB4
Give bare numbers, in nM.

For orientation, consider the following solved cases.
COC(CCCCC(=O)NO)C(=O)Nc1ccccc1 (racemic)    3500
C=C(C)COC(CCCCC(=O)NO)C(=O)Nc1ccccc1 (racemic)    9600
O=C(CCCCCCC(O)C(=O)Nc1ccccc1)NO (racemic) [Compound 13a]    900
C=CCOC(CCCCCCC(=O)NO)C(=O)Nc1ccccc1 (racemic) [Compound 13c]    600
COc1ccc(COC(CCCCCC(=O)NO)C(=O)Nc2ccccc2)cc1 (racemic)    100

# batch size: 4; output IC50 per entry
1. COc1cc(COC(CCCCCC(=O)NO)C(=O)Nc2ccccc2)cc(OC)c1 (racemic)
2. COc1ccc(CO[C@H](CCCCCC(=O)NO)C(=O)Nc2ccccc2)cc1 [(R)-9d]
3. O=C(CCCCCC(OCc1ccc(Br)cc1)C(=O)Nc1ccccc1)NO (racemic)
4. CCCOC(CCCCC(=O)NO)C(=O)Nc1ccccc1 (racemic)

[50, 70, 60, 4100]

* * *

- Test system: HCT-116 human colon carcinoma cells
- MEASUREMENT DESCRIPTION: Cytotoxicity (sulphorodamine B) on HCT-116 tumor cells
- Assay type: cell-based
- MEASUREMENT PARAMETERS: Homo sapiens, HCT-116 cells, 24 h treatment, then 48 h in drug-free medium, read-out: IC50 ± SD, HCT-116
Give pIC50 for every item shown.
Give bare numbers, as −log10 of the molar value.

List pIC50 for every entry below, keeping the order given.
1. O=C(CCCCC(OCc1ccccc1)C(=O)Nc1ccccc1)NO (racemic)
2. CO[C@@H](CCCCC(=O)NO)C(=O)Nc1ccccc1 [(S)-5b]
3. CO[C@H](CCCCC(=O)NO)C(=O)Nc1ccccc1 [(R)-5b]
4. COc1ccc(COC(CCCCC(=O)NO)C(=O)Nc2ccccc2)cc1 (racemic)
5. O=C(CCCCCC(OCc1ccc(C(F)(F)F)cc1)C(=O)Nc1ccccc1)NO (racemic)

1. 5.62
2. 5.17
3. 5.11
4. 5.89
5. 6.40

Value sought for every listed molecule: pIC50.
1. CCCOC(CCCCC(=O)NO)C(=O)Nc1ccccc1 (racemic)
2. COc1cc(COC(CCCCCC(=O)NO)C(=O)Nc2ccccc2)cc(OC)c1 (racemic)
3. COC(CCCCCCC(=O)NO)C(=O)Nc1ccccc1 (racemic) [Compound 13b]
4. O=C(CCCCCCC(O)C(=O)Nc1ccccc1)NO (racemic) [Compound 13a]
5. C=CCOC(CCCCCC(=O)NO)C(=O)Nc1ccccc1 (racemic)
6. COC(CCCCCC(=O)NO)C(=O)Nc1ccccc1 (racemic)
7. COc1ccc(CO[C@H](CCCCCC(=O)NO)C(=O)Nc2ccccc2)cc1 [(R)-9d]
8. COc1cc2cc(c1)COc1ccccc1NC(=O)C(CCCCCC(=O)NO)OCC=C2 (racemic)

1: 5.07; 2: 6.52; 3: 5.96; 4: 5.80; 5: 6.00; 6: 6.05; 7: 6.40; 8: 6.40

Please go through the list and note pIC50 for each molecule.
1. COc1cccc(COC(CCCCCC(=O)NO)C(=O)Nc2ccccc2)c1 (racemic)
2. COc1ccc(COC(CCCCCCC(=O)NO)C(=O)Nc2ccccc2)cc1 (racemic) [Compound 13d]
3. O=C(CCCCCC1OCCCCCCOc2ccncc2NC1=O)NO (racemic)
4. O=C(CCCCCC(OCc1ccc(Br)cc1)C(=O)Nc1ccccc1)NO (racemic)
5. C=C(C)COC(CCCCC(=O)NO)C(=O)Nc1ccccc1 (racemic)
6. O=C(CCCCCC(O)C(=O)Nc1ccccc1)NO (racemic)

[6.22, 6.30, 4.89, 6.52, 4.91, 6.15]

Here are 2 molecules. What values of pIC50 were reported for them?
1. Cc1ccc(COC(CCCCCC(=O)NO)C(=O)Nc2ccccc2)cc1 (racemic)
2. COC(CCCCC(=O)NO)C(=O)Nc1ccccc1 (racemic)

1. 6.52
2. 5.30

* * *

- Test system: NCI-H460 non-small cell carcinoma cells
- MEASUREMENT DESCRIPTION: Cytotoxicity (sulphorodamine B) on NCI-H460 tumor cells
- Format: cell-based
- MEASUREMENT PARAMETERS: Homo sapiens, 24 h treatment, then 48 h in drug-free medium, read-out: IC50 ± SD, NCI-H460
VALUE TYPE: log10(IC50) (log10 of the value in µM)
Heads up, the numbers here are log10 of IC50 in µM units.

Guide cases for log10(IC50), answers given:
CO[C@@H](CCCCC(=O)NO)C(=O)Nc1ccccc1 [(S)-5b]    0.89
O=C(CCCCCCC(O)C(=O)Nc1ccccc1)NO (racemic) [Compound 13a]    0.56
O=C(CCCCC(OCc1ccccc1)C(=O)Nc1ccccc1)NO (racemic)    0.74
COc1ccc(COC(CCCCCC(=O)NO)C(=O)Nc2ccccc2)cc1 (racemic)    -0.30
C=CCOC(CCCCC(=O)NO)C(=O)Nc1ccccc1 (racemic)    0.93

Provide log10(IC50) values for the following items, in order.
1. COc1ccc(CO[C@H](CCCCCC(=O)NO)C(=O)Nc2ccccc2)cc1 [(R)-9d]
2. O=C(CCCCCC(OCc1ccc(Br)cc1)C(=O)Nc1ccccc1)NO (racemic)
3. O=C(CCCCC(O)C(=O)Nc1ccccc1)NO (racemic)
4. C=CCOC(CCCCCC(=O)NO)C(=O)Nc1ccccc1 (racemic)

1. -0.30
2. -0.30
3. 1.14
4. 0.26

* * *

- Tested on: NCI-H460 non-small cell carcinoma cells
- MEASUREMENT DESCRIPTION: Cytotoxicity (sulphorodamine B) on NCI-H460 tumor cells
- Assay type: cell-based
- MEASUREMENT PARAMETERS: Homo sapiens, 24 h treatment, then 48 h in drug-free medium, read-out: IC50 ± SD, NCI-H460
Counter-ions that a name gives are not always drawn.
I'd appreciate it if you could supply pIC50 values for the items below.
Numbers only, as −log10 of the molar value.

Consider the worked cases shown below.
O=C(CCCCC[C@@H]1NCCCCCCOc2ccccc2NC1=O)NO [(S)-42a, hydrochloride]    5.96
COc1cc2cc(c1)COc1ccccc1NC(=O)C(CCCCCC(=O)NO)OCC=C2 (racemic) [Compound 32]    6.05
C=CCOC(CCCCCCC(=O)NO)C(=O)Nc1ccccc1 (racemic) [Compound 13c]    5.82
O=C(CCCCCC(O)C(=O)Nc1ccccc1)NO (racemic) [Compound 9a]    6.00

// each listed compound needs a value for pIC50
1. CO[C@H](CCCCC(=O)NO)C(=O)Nc1ccccc1 [(R)-5b]
2. Cc1ccc(COC(CCCCCC(=O)NO)C(=O)Nc2ccccc2)cc1 (racemic) [Compound 9g]
3. COc1ccc(COC(CCCCC(=O)NO)C(=O)Nc2ccccc2)cc1 (racemic) [Compound 5g]
4. C=C(C)COC(CCCCC(=O)NO)C(=O)Nc1ccccc1 (racemic) [Compound 5d]
5. COc1ccc(COC(CCCCCC(=O)NO)C(=O)Nc2ccc(OC)cc2)cc1 (racemic) [Compound 9m]
6. O=C(CCCCCC(OCc1cccc(Oc2ccccc2)c1)C(=O)Nc1ccccc1)NO (racemic) [Compound 9k]
7. COc1ccc(COC(CCCCCCC(=O)NO)C(=O)Nc2ccccc2)cc1 (racemic) [Compound 13d]

1: 5.02; 2: 6.22; 3: 5.70; 4: 4.83; 5: 6.52; 6: 6.15; 7: 6.15

Give measured pIC50 for every item shown.
1. COC(CCCCC(=O)NO)C(=O)Nc1ccccc1 (racemic) [Compound 5b]
2. COc1cccc(COC(CCCCCC(=O)NO)C(=O)Nc2ccccc2)c1 (racemic) [Compound 9h]
3. COC(CCCCCC(=O)NO)C(=O)Nc1ccccc1 (racemic) [Compound 9b]
4. COC(CCCCCCC(=O)NO)C(=O)Nc1ccccc1 (racemic) [Compound 13b]
5. O=C(CCCCCC1OCCCCCCOc2ccncc2NC1=O)NO (racemic) [Compound 46]

1: 5.24; 2: 6.22; 3: 5.92; 4: 5.72; 5: 4.70

This collection of values is drawn from patent US20100113504A1.
